As an illustration, consider measured pIC50 for compounds on EGFR (UniProt P00533).
Sequence (P00533 whole entry, looked up): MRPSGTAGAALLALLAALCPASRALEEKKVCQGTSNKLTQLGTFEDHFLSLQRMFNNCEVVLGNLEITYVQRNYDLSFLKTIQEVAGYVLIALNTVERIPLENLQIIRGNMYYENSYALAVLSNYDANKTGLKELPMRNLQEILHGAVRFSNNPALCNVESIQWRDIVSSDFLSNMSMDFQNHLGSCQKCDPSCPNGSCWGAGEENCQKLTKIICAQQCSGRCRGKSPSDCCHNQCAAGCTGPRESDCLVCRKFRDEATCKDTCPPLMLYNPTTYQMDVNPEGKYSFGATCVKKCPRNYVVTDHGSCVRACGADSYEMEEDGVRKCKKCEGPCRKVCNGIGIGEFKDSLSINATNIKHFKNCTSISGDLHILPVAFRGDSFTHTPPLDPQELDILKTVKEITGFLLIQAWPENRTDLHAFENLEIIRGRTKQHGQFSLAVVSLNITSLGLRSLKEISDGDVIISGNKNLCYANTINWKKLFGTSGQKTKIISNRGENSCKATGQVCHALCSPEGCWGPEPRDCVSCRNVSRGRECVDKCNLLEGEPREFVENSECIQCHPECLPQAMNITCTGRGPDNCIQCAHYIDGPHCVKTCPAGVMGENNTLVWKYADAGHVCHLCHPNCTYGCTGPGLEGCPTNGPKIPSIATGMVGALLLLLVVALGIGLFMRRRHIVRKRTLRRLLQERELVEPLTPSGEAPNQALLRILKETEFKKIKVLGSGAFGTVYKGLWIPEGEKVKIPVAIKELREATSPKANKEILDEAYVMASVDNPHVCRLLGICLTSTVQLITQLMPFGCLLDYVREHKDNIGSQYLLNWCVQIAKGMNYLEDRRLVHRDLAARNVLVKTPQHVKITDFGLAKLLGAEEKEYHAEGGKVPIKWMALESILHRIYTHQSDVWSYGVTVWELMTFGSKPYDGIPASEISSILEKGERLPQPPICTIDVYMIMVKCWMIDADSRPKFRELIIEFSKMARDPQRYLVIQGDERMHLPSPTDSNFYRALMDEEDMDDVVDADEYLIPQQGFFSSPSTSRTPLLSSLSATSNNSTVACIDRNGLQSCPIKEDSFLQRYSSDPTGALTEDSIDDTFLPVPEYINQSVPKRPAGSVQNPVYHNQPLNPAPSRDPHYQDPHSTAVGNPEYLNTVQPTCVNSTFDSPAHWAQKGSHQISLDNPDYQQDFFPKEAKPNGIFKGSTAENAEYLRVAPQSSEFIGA
pIC50: −log10 of the molar value.
ENDPOINT: pIC50

Please review the entries below; each comes with its answer.
{"SMILES TEXT": "COc1cc2ncnc(Nc3ccc(Br)cc3)c2cc1OC", "pIC50": 9.01}
{"SMILES TEXT": "OCCN(CCO)N1=CC=C2N=CN=C(Nc3cccc(Br)c3)C2=C1", "pIC50": 7.92}
{"SMILES TEXT": "CN1CCN(CCCNN2=CC=C3N=CN=C(Nc4cccc(C)c4)C3=C2)CC1", "pIC50": 8.25}
{"SMILES TEXT": "Nc1cc2c(Nc3cccc(Br)c3)ncnc2cc1Cl", "pIC50": 8.18}
{"SMILES TEXT": "Cc1cccc(Nc2ncnc3cnc(NCCc4c[nH]cn4)nc23)c1", "pIC50": 8.52}
{"SMILES TEXT": "O=[N+]([O-])c1ccc2c(Nc3cccc(I)c3)ncnc2c1", "pIC50": 6.26}

a. CCOc1cc2ncnc(Nc3cccc(Br)c3)c2cc1OCC
b. Nc1cc2ncnc(Nc3cccc(Br)c3)c2cn1
c. Nc1cc2ncnc(Nc3ccccc3Br)c2cn1
d. CNc1ncc2ncnc(Nc3cccc(Br)c3)c2n1
e. Cc1cccc(Nc2ncnc3cnc(N(C)C)nc23)c1
Ordering: ascending pIC50. Returns: the labels listed in the requested order.
c, b, e, d, a
(c: 6.61, b: 8.00, e: 8.40, d: 9.15, a: 11.22)
